Kindly state PBM binding z-score for each of the entries shown.
# Tested on: RARg homodimer (NR concentration 270 nM)
# ASSAY_COMMENT: PBM binding z-score (relative to random genomic background probes); higher = stronger binding; sequences stand for … in GC…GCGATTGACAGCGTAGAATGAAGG
Just the number, please, no unit attached.

Asked: Requested read-out: PBM binding z-score. Entry: "TCTATCAGTTGAAGGGCAACCGACGAGTCCGTTT"
Given back: 0.748

Asked: Requested read-out: PBM binding z-score. Entry: "ATACTAAGGTGATCGTGAGGTCGTTGATACTAAC"
Given back: 1.27

Asked: Requested read-out: PBM binding z-score. Entry: "GTACCAATGTGAATAGGTCGTTGATGAGTAGGCG"
Given back: 0.344

Asked: Requested read-out: PBM binding z-score. Entry: "GATACAGGGTCAAGGCCAGAGGACGCGTATTGAT"
Given back: 4.94

Asked: Requested read-out: PBM binding z-score. Entry: "TATACAGGGTCAAAGGCCAGAGTACGAATGTCGA"
Given back: 5.12

Asked: Requested read-out: PBM binding z-score. Entry: "GCGTCTGGGGCAAAGCAGGTTACCATAAGGTTGG"
Given back: 0.815

Asked: Requested read-out: PBM binding z-score. Entry: "GCGACTGTGGCAAAGCAGGTTACCATAAGGTTGG"
Given back: -0.193

Asked: Requested read-out: PBM binding z-score. Entry: "CGACCTAGGTCAAGGACAGTGAATCTCCGCACGC"
Given back: 4.69

Asked: Requested read-out: PBM binding z-score. Entry: "AGAATGAGGTAACCAAAGATCAGGGAAACGCTTG"
Given back: 0.561

Asked: Requested read-out: PBM binding z-score. Entry: "ATCTCTAGGTAAGACTGAGTTCAGTGAAGAACGC"
Given back: 0.377

Asked: Requested read-out: PBM binding z-score. Entry: "TAGCCTAGGTCAGATCGAGCCAGTATACGCTATA"
Given back: 3.3

Asked: Requested read-out: PBM binding z-score. Entry: "CCTAGTTGGTTAGGAGGTCACACACCGGATATGA"
Given back: 3.53

Asked: Requested read-out: PBM binding z-score. Entry: "CGTCCAAGGTCAAAGGTCAGTGTAGAGATGACGG"
Given back: 8.04

Asked: Requested read-out: PBM binding z-score. Entry: "CCTACTGGGCCACGAAAGGTCATTGAGTCAGTGA"
Given back: 4.58

Asked: Requested read-out: PBM binding z-score. Entry: "ATATCTAGGTTAGCTGGGGTCATTCAGACTAGGC"
Given back: 3.18

Asked: Requested read-out: PBM binding z-score. Entry: "CGAACTAGGTAATTGACAGGACAGTGAATAGTAA"
Given back: 0.198

Asked: Requested read-out: PBM binding z-score. Entry: "TGTGCTAGGTCAACGATGGTCAGCTAATCTGCTA"
Given back: 5.19

Asked: Requested read-out: PBM binding z-score. Entry: "TCTTGTAGATCAACAGGAGGTTAAGCAAGATCGA"
Given back: 0.301

Asked: Requested read-out: PBM binding z-score. Entry: "CCTACTGGGCCAAAATGGTCATTGATGCCGATAA"
Given back: 0.0823

Asked: Requested read-out: PBM binding z-score. Entry: "TCTAGGAGGACACGAAAGGTCAGAGCTCGACATC"
Given back: 5.11

Asked: Requested read-out: PBM binding z-score. Entry: "CCGACTGGGGCAAAAAGGTTACCATACCATCCGG"
Given back: 1.6

Asked: Requested read-out: PBM binding z-score. Entry: "TAGCCTAGGTCAGATCGGGCCGGTATACGCTATA"
Given back: 3.43

Asked: Requested read-out: PBM binding z-score. Entry: "TCTTGTTGGTCACGGAGGTCACACACGACGGGTA"
Given back: 5.01

Asked: Requested read-out: PBM binding z-score. Entry: "ATCTCTAGGTAAAGGTAGTTCAGTGAATGCAAAT"
Given back: 0.605

Asked: Requested read-out: PBM binding z-score. Entry: "AGTATTAGTTGAGACGAGGGCAACCGATAGGTTG"
Given back: 0.922

Asked: Requested read-out: PBM binding z-score. Entry: "CCTCGGAGGACAACAGGAGGTCAGAGTTGCCAGA"
Given back: 3.26
